Cited source for all entries: patent US20210380703A1

As shown below, each of these binders has a reported optical density value.
Study System: human Fc (human)
Method Notes: ELISA, negative control
Include the unit right after the number.

Reference set (2 entries):
375_A11 (antibody, V domains shown) VH: EVQLLESGGGLVQPGGSLRLSCAASGFTFSDYGMHWVRQAPGKGLEWVSSINYNSGYKSYADSVKGRFTISRDNSKNTLYLQMNSLRAEDTAVYYCARAANWHDTALDYWGQGTLVTVSS VL: DIQMTQSPSSLSASVGDRVTITCRASQSIVSYLNWYQQKPGKAPKLLIYYVTNLASGVPSRFSGSGSGTDFTLTISSLQPEDFATYYCQQSYDNPLTFGGGTKVEIK = 0.176 OD
376_H08 (antibody, V domains shown) VH: EVQLLESGGGLVQPGGSLRLSCAASGFTFDSYGMNWVRQAPGKGLEWVSNINYNGGYKGYADSVKGRFTISRDNSKNTLYLQMNSLRAEDTAVYYCARSATWHDTHLDYWGQGTLVTVSS VL: DIQMTQSPSSLSASVGDRVTITCRASQSILTYLNWYQQKPGKAPKLLIYAATSRHSGVPSRFSGSGSGTDFTLTISSLQPEDFATYYCQQSDSLPLTFGGGTKVEIK = 0.274 OD

Now examine the next entry.
Fill in: optical density of 376_E11 (antibody, V domains shown) VH: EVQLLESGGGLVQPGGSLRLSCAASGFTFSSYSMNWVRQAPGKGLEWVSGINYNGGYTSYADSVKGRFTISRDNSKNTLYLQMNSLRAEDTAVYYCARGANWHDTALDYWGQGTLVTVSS VL: DIQMTQSPSSLSASVGDRVTITCRASQSILTYVNWYQQKPGKAPKLVIYAATSRASGVPSRFSGSGSGTDFTLTISSLQPEDFATYYCQQSYELPLTFGGGTKVEIK is ___
0.268 OD
